T/C values, listed per item
Tested on: P388 leukemia ip, CD2F1 mice, survival T/C
Test: NCI In Vivo Anticancer Drug Screen. Data for tumor model P388 Leukemia (intraperitoneal) in CD2F1 (CDF1) mice
Conditions: endpoint: median survival time; dose: 200.0 mg/kg/injection; schedule: Q01DX001 (ip); vehicle: Klucel (hydroxypropylcellulose) (HPC); higher = longer survival
Toxic doses and inconclusive results are not listed.
quantity_kind: T/C

# line_notation, assay_result
measured = [
    ("O=c1ccn2c(=O)n1CCCCn1cnc3ncnc(c31)SCCC2", "90 % of control"),
    ("CN(C)/N=C(\\N)c1nnn(C)n1", "100 % of control"),
    ("Cn1c(=O)c2c(ncn2C2C(=O)NNC2=O)n(C)c1=O", "93 % of control"),
    ("c1ccc(CN2CO[C@@H]3CCCCC[C@H]32)cc1", "102 % of control"),
]

Source listed as PubChem BioAssay AID330.
